B1: HDV Ribozyme (parent)
chain: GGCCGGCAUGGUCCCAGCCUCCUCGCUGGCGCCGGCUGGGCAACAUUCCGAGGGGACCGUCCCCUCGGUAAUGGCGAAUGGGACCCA

variants of: B1; assay: self-cleavage, relative activity (ratio to wild type); higher = more cleavage; co-transcriptional
endpoint name: self-cleavage
Please reply with the value in numeric form only.

mutation list: A70C G73U
self-cleavage: 0.302

mutation list: C15G G55C
self-cleavage: 0.582

mutation list: C7U G53C
self-cleavage: 1.12

mutation list: C3A G76C
self-cleavage: 0.604

mutation list: U9A A56U
self-cleavage: 0.867

mutation list: C64A G74C
self-cleavage: 0.242

mutation list: G6C A56U
self-cleavage: 0.214

mutation list: G28A C32A
self-cleavage: 0.234

In: If you can, please state the reported self-cleavage value of C4U C57G .
Out: 0.629

In: For U46G C61U , what is its reported self-cleavage?
Out: 0.332

In: Can you share its self-cleavage? I mean this variant: C75A A77C
Out: 0.237

In: Would you mind telling me what self-cleavage value was observed for G50U C75U ?
Out: 0.13

In: // lookup self-cleavage for G38U A43U
Out: 0.0963

In: # lookup: self-cleavage of C13A G80A
Out: 0.106

In: Return reported self-cleavage; argument: C30A G67U
Out: 0.339

In: Reported self-cleavage, variant G53A U65C : ____
Out: 0.815

In: Consider the variant A42U G52C and give its measured self-cleavage.
Out: 0.799

In: Fill in: self-cleavage of A45U U69A is ___
Out: 0.77

In: Name the reported self-cleavage value associated with the variant C61A G67U
Out: 1.12

Cited source: the RNAGym collection of RNA variant scans (doi:10.7554/elife.80360)
